tested on: Nucleic Acid; experiment: Inhibitory concentration against ethidium bromide binding to [poly(dA-dT)] [poly(dA-dT)]; format: nucleic-acid assay
Lab note: compare C50 with 6 µM, writing Criterion met if less and Criterion not met if equal or more.

Query: Is 6 µM strictly greater than the compound's reported C50? compound: `CN(C)CCNC(=O)c1cccc2c(O)c3cccc([N+](=O)[O-])c3nc12`
Result: Criterion met

Query: Regarding `CN(C)CCNC(=O)c1cc([N+](=O)[O-])cc2c(O)c3cccnc3nc12` , kindly confirm whether its C50 is beneath 6 µM.
Result: Criterion not met

Query: Just wondering, is C50 of `C(=N/NC1=NCCN1)/c1cccc2cc3cnccc3nc12` below 6 µM?
Result: Criterion not met

Query: is_below(C50, 6 µM) for `CN(C)CCNC(=O)c1cccc2c(=O)c3ccccc3[nH]c12` ?
Result: Criterion not met

Query: Hi there! Is C50 for `CN(C)CCNC(=O)c1cccc2cc3cccnc3nc12` below 6 µM, do you know?
Result: Criterion not met

Query: Input `CN(C)CCNC(=O)c1ccc([N+](=O)[O-])c2c(O)c3cnccc3nc12` ; condition: C50 strictly below 6 µM. Does it hold?
Result: Criterion not met

Query: Dear colleague, could you confirm whether C50 of `CN(C)CCNC(=O)c1ccc([N+](=O)[O-])c2cc3cnccc3nc12` falls below 6 µM? Thanks.
Result: Criterion met

Query: Please indicate whether the reported C50 of `CN(C)CCn1c(=O)c2cccc3c(=O)c4ccncc4n(c1=O)c32` is strictly below 6 µM.
Result: Criterion not met

Query: Strictly below 6 µM: is that where C50 of CN(C)CCNC(=O)C1=CC=C([N+](=O)[O-])C2C(=O)c3ccccc3N=C12 (configuration not stated) sits?
Result: Criterion not met

Query: Problem: For the compound `Oc1c2cccc(/C=N\NC3=NCCN3)c2nc2cccnc12` , is C50 under 6 µM?
Result: Criterion not met

Query: Identify whether the compound `CN(C)CCNC(=O)c1cccc2cc3ccncc3nc12` records C50 below 6 µM.
Result: Criterion met

Query: In the record for `C[N+](C)(C)CC(=O)N/N=C\c1cccc2c(O)c3cccnc3nc12` , is C50 less than 6 µM?
Result: Criterion not met

Query: Is 6 µM strictly greater than the compound's reported C50? compound: `C(=N/NC1=NCCN1)/c1cccc2cc3cccnc3nc12`
Result: Criterion met

Query: Hello, I'm reviewing records and need to know if C50 of `CN(C)CCNC(=O)c1ccc([N+](=O)[O-])c2c(O)c3cccnc3nc12` is below 6 µM. Could you check?
Result: Criterion not met

Query: State whether 6 µM exceeds C50 recorded for `CN(C)CCNC(=O)c1cccc2cc3ncccc3nc12` .
Result: Criterion not met

Query: Item `CN(C)CCNC(=O)c1cccc2c(O)c3cccnc3nc12` : C50 beneath 6 µM, strictly?
Result: Criterion not met

Query: Determine whether this compound shows C50 lower than 6 µM (ties excluded): `CN(C)CCNC(=O)c1cccc2c(O)c3ccncc3nc12`
Result: Criterion not met

Query: Here's an entry: `CN(C)CCNC(=O)c1ccc([N+](=O)[O-])c2cc3ncccc3nc12` . Is its C50 below 6 µM?
Result: Criterion met

Query: Here's an entry: `C(=N/NC1=NCCN1)/c1cccc2cc3ncccc3nc12` . Is its C50 below 6 µM?
Result: Criterion met

Query: # TODO verify C50 < 6 µM strictly for this compound: `CN(C)CCNC(=O)c1cccc2c(O)c3ccc([N+](=O)[O-])cc3nc12`
Result: Criterion met

Query: Answer whether the compound `CN(C)CCNC(=O)c1cc([N+](=O)[O-])cc2c(O)c3ccccc3nc12` has C50 strictly less than 6 µM
Result: Criterion met

Query: Consider the compound `CN(C)CCNC(=O)c1cccc2cc3ccccc3nc12` . Is its C50 strictly less than 6 µM?
Result: Criterion met

Query: Consider `Oc1c2cccnc2nc2c(/C=N\NC3=NCCN3)cccc12` . Does its C50 lie strictly below 6 µM?
Result: Criterion met

Query: Is it true that C50 reported for `CN(C)CCNC(=O)c1ccc([N+](=O)[O-])c2cc3cccnc3nc12` is less than 6 µM?
Result: Criterion met

Query: Consider `C[N+](C)(C)CC(=O)N/N=C\c1cccc2cc3cccnc3nc12` . Does its C50 lie strictly below 6 µM?
Result: Criterion not met
